substrate: OC[C@@H](O)[C@H](O)[C@@H](O)CO; test: purified protein; details: 1-10 mM xylitol, 1.5 mM NAD+, 50 mM Tris-HCl pH 8.0, 30 °C
measured-property: Km

Record summary for SpXDH (Schizosaccharomyces pombe 972h-; C100D) (protein) MAPAEKAFVLRKKMDTAIEDRPGQTLTDDHQVKVAIKATGICGSDVHYWKEGGIGDFILKKPMILGHESAGVVVEVGKGVSSLKPGDPVAVEPGCVCRLDDYCRSGRYNLCPHMEFAATPPYDGTLRTYYITTEDFCTKLPKQISVEEGALFEPMSVAVHAMTRGNLKCGSRVLVMGCGTVGLLMMAVAKAYGAIDIVAVDASPSRVEFAQKYVGAKPFTPIAAKENESLPDYAQRYKQAIIEKYGEFDFAVDATGVGICIHTAVLALKRGGTFVQAGNGKPVIDFPINHIINYEINVLGSFRYAHGCYKQSLFLVSNGLVDVKPLITHRFAFKDALKAYETVASGEEGVLKVIIGGPDA : reported Km = 8.26 ± 0.89 mM

Record summary for SpXDH C97D mutant (enzyme, Schizosaccharomyces pombe, UniProt P36624 1-360, looked up, SPBC1773.05c protein of S. pombe (SpXDH), cloned into pQE-81L; source: E. coli DH5α, purified (Ni-NTA)) MAPAEKAFVLRKKMDTAIEDRPGQTLTDDHQVKVAIKATGICGSDVHYWKEGGIGDFILKKPMILGHESAGVVVEVGKGVSSLKPGDPVAVEPGCVDRLCDYCRSGRYNLCPHMEFAATPPYDGTLRTYYITTEDFCTKLPKQISVEEGALFEPMSVAVHAMTRGNLKCGSRVLVMGCGTVGLLMMAVAKAYGAIDIVAVDASPSRVEFAQKYVGAKPFTPIAAKENESLPDYAQRYKQAIIEKYGEFDFAVDATGVGICIHTAVLALKRGGTFVQAGNGKPVIDFPINHIINYEINVLGSFRYAHGCYKQSLFLVSNGLVDVKPLITHRFAFKDALKAYETVASGEEGVLKVIIGGPDA : reported Km = 10.4 ± 0.1 mM

Origin of the recorded values: paper PMC9895041
